Cited source: patent US20260234242A1

Target: T1, his-tagged human CDH6 extracellular region protein (hCDH6 ECD-his) (human, UniProt P55285 19-615)
T1 construct: also called Human CDH6-his; hCDH6-his; not shown: his tag
T1 sequence: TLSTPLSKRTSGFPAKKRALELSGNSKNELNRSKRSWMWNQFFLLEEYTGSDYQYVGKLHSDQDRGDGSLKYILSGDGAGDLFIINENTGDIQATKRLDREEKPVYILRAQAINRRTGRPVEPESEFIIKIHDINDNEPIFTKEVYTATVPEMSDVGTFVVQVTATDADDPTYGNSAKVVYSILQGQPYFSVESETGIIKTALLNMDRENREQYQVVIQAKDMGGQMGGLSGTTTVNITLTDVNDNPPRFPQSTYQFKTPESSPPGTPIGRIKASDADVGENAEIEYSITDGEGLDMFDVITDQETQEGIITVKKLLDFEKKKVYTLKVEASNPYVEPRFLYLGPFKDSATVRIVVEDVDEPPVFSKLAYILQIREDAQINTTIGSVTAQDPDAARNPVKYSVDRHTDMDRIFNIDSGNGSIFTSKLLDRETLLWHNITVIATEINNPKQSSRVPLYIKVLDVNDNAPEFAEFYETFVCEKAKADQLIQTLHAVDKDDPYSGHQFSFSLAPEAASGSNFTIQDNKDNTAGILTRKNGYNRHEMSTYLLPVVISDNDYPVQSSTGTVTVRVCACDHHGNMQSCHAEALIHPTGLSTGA
Test: ELISA, coated antigen
Protocol: Human CDH6 protein (hCDH6 ECD-his, conventionally synthesized), monkey CDH6 protein (cynoCDH6 ECD-his, conventionally synthesized; the cynoCDH6 ECD sequence was derived from Uniprot #A0A2K5TW62 (19-615)), and murine CDH6 protein (mCDH6 ECD-his, conventionally synthesized; the mCDH6 ECD sequence was derived from Uniprot #P97326 (19-615)) were diluted with PBS to a final concentration of 1 μg/mL, and added to a 96-well ELISA plate at 100 μL/well. The plate was incubated at 4° C. overnight. […]
pEC50: −log10 of the molar value.

[
  {
    "binder": "hCDH6-6-H1L5 (antibody, V domains shown, Humanized) VH: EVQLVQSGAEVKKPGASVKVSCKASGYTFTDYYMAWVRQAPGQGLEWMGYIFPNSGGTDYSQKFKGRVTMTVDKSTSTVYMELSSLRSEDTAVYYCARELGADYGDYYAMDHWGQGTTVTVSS VL: DIVMTQSPLSLPVTPGEPASISCRASENIDSYLAWYLQKPGKSPQLLVYSATLLADGVPDRFSGSGSGTDFTLKISRVEAEDVGVYYCQHYYRTPPTFGQGTKLEIK",
    "pEC50": 10.51
  },
  {
    "binder": "hCDH6-6-H2L5 (antibody, V domains shown, Humanized) VH: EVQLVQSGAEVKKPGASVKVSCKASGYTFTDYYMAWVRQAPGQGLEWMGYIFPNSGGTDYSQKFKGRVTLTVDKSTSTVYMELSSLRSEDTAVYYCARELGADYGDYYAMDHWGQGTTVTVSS VL: DIVMTQSPLSLPVTPGEPASISCRASENIDSYLAWYLQKPGKSPQLLVYSATLLADGVPDRFSGSGSGTDFTLKISRVEAEDVGVYYCQHYYRTPPTFGQGTKLEIK",
    "pEC50": 10.59
  },
  {
    "binder": "hCDH6-6-H3L5 (antibody, V domains shown, Humanized) VH: EVQLVQSGAEVKKPGASVKVSCKASGYTFTDYYMAWVRQAPRQGLEWMGYIFPNSGGTDYSQKFKGRVTMTVDKSTSTVYMELSSLRSEDTAVYYCARELGADYGDYYAMDHWGQGTTVTVSS VL: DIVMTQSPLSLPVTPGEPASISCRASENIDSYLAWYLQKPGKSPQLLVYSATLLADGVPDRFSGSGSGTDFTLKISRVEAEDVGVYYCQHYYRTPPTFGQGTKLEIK",
    "pEC50": 10.37
  },
  {
    "binder": "hCDH6-6-H2L1 (antibody, V domains shown, Humanized) VH: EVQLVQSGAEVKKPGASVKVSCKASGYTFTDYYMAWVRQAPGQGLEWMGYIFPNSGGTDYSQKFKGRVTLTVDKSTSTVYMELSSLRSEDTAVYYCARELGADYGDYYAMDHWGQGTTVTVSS VL: DIQMTQSPSSLSASVGDRVTITCRASENIDSYLAWYQQKPGKSPKLLLYSATLLADGVPSRFSGSGSGTDYTLTISSLQPEDFATYYCQHYYRTPPTFGQGTKLEIK",
    "pEC50": 10.49
  },
  {
    "binder": "hCDH6-6-H3L4 (antibody, V domains shown, Humanized) VH: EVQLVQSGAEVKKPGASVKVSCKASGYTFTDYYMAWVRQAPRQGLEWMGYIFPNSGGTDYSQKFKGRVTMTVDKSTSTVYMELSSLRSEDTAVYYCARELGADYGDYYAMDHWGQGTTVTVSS VL: DIQMTQSPSSLSASVGDRVTITCRASENIDSYLAWYQQKPGKSPKLLVYSATLLADGVPSRFSGSGSGTDYTLTISSLQPEDFARYYCQHYYRTPPTFGQGTKLEIK",
    "pEC50": 10.39
  }
]
